- Test system: Plasmodium falciparum
- assay.name: In vitro antimalarial activity against chloroquine-sensitive Plasmodium falciparum NF 54
- Assay type: functional, organism-based
endpoint.name: IC50 (nM)

INSERT INTO results (molecule, test_result) VALUES
  ('C[C@@H]1CC[C@H]2[C@@H](C)C(=O)O[C@@H]3O[C@@]4(C)CC[C@@H]1[C@]32OO4 [ARTEMISININ]', 9.3),
  ('CC1(O)CCC2CC1OO[C@]2(C)CS(=O)(=O)c1ccccc1 (some centres undefined)', 89),
  ('CC1(OC(=O)C(=O)N(Cc2ccccc2)Cc2ccccc2)CCC2CC1OO[C@]2(C)CS(=O)(=O)c1ccccc1 (some centres undefined)', 81),
  ('CCOC(=O)C(=O)OC1(C)CCC2CC1OO[C@@]2(C)CS(=O)(=O)c1ccccc1 (some centres undefined)', 170);

====

The reader will find reported pIC50 values listed item by item below.
- System: Plasmodium falciparum
- assay.name: In vitro antimalarial activity against chloroquine-sensitive Plasmodium falciparum NF 54
- Format: functional, organism-based
pIC50: −log10 of the molar value.
endpoint.name: pIC50

INSERT INTO assay_data (compound, comparator, test_result) VALUES
  ('C[C@@H]1C(=O)C[C@H]2CC1OO[C@@]2(C)/C=C\c1ccc(C(F)(F)F)cc1C(F)(F)F (single isomer, unassigned)', '=', 7.15),
  ('CC1(OC(=O)C(=O)N(Cc2ccccc2)Cc2ccccc2)CCC2CC1OO[C@@]2(C)CS(=O)(=O)c1ccccc1 (stereo not given in full)', '=', 7.68),
  ('COc1ccc(COC2(C)CCC3CC2OO[C@@]3(C)CS(=O)(=O)c2ccccc2)cc1 (stereo not given in full)', '=', 7.85),
  ('CC(=O)OC1(C)CCC2CC1OO[C@]2(C)CS(=O)(=O)c1ccccc1 (stereo not given in full)', '=', 7.77),
  ('CC1(CSc2ccccc2)OOC2CC1CC[C@@]2(C)O.CC1(CSc2ccccc2)OOC2CC1CC[C@]2(C)O (stereo not given in full)', '<', 5.60),
  ('CC1(O)CCC2CC1OO[C@@]2(C)CS(=O)(=O)c1ccccc1 (stereo not given in full)', '=', 7.26),
  ('CC(=O)CC(=O)OC1(C)CCC2CC1OO[C@@]2(C)CS(=O)(=O)c1ccccc1 (stereo not given in full)', '=', 7.34),
  ('CCOC(=O)C(=O)OC1(C)CCC2CC1OO[C@]2(C)CS(=O)(=O)c1ccccc1 (stereo not given in full)', '=', 6.85),
  ('CC(=O)OC1(C)CCC2CC1OO[C@@]2(C)CS(=O)(=O)c1ccccc1 (stereo not given in full)', '=', 7.77),
  ('CC(=O)CC(=O)OC1(C)CCC2CC1OO[C@]2(C)CS(=O)(=O)c1ccccc1 (stereo not given in full)', '=', 7.14);
